These measurements were taken from patent US4217357A.

Catalogue of Ratio of (3) to (1) readings, one per entry.
Target: thromboxane synthetase (Homo sapiens, UniProt P24557)
Construct: Indomethacin-pretreated human platelet microsomes; from tissue; host or cells: human platelet microsomes
Sequence (P24557 whole entry): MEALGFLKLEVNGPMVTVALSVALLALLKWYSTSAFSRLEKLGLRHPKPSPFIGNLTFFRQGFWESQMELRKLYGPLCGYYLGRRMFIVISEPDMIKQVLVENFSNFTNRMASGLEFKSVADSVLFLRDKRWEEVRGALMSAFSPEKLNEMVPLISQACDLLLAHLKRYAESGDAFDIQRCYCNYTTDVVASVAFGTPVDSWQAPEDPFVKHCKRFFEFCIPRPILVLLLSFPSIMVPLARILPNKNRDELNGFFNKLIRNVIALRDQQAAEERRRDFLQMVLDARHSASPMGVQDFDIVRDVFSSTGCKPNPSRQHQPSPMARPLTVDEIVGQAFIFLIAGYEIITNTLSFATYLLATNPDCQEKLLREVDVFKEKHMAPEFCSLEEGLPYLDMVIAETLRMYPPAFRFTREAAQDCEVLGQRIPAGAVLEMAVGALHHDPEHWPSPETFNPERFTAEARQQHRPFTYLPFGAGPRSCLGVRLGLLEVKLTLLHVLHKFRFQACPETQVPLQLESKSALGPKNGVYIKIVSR
Test: Thromboxane A2 (TxA2) synthetase in vitro enzyme assay
Format: biochemical
Conditions: prostacyclin synthetase / thromboxane synthetase 50% inhibition concentrations

Brc1ccc2[nH]cc(Cn3ccnc3)c2c1    170
CCn1cc(Cn2ccnc2)c2ccccc21    > 70,000
Cc1ccc(-c2[nH]c3ccccc3c2Cn2ccnc2)cc1    8,000
FC(F)(F)c1ccc2c(Cn3ccnc3)c[nH]c2c1    500
Cc1cccc2c(Cn3ccnc3)c[nH]c12    > 12,000
CC(c1c[nH]c2ccccc12)n1ccnc1 (stereo not drawn) [Example VII, 3-[α-(imidazol-1-yl)ethyl]indole]    3,300
c1ccc(-c2[nH]c3ccccc3c2Cn2ccnc2)cc1    1,200

Okay, now this compound:
If you can, please state the reported Ratio of (3) to (1) value of "Clc1ccc(Cn2cc(Cn3ccnc3)c3ccccc32)cc1" .
210
